Consider the following molecules; for each one, report its Papp A→B.
experiment: Apparent permeability from apical to basolateral side of human Caco-2 cells; type: ADME, cell-based
Express your answer in ×10⁻⁶ cm/s, writing the number without its unit.

Look up and state reported Papp A→B for `CCC[C@]1(C(=O)O)OCCc2c1[nH]c1c(C)ccc(C#N)c21`
3.2

Hello, please tell me recorded Papp A→B for this one: `CCC[C@]1(CC(=O)O)OCCc2c1[nH]c1c(C)ccc(C#N)c21`
24

----------
experiment: Apparent permeability from basolateral to apical side of human Caco-2 cells; format: ADME, cell-based
parameterMeasured: Papp B→A (×10⁻⁶ cm/s)
Express the result in ×10⁻⁶ cm/s but write the number alone.

Name the recorded Papp B→A of the molecule listed here: `CCC[C@]1(C(=O)O)OCCc2c1[nH]c1c(C)ccc(C#N)c21`
24.2

Specify reported Papp B→A for the molecule shown: `CCC[C@]1(CC(=O)O)OCCc2c1[nH]c1c(C)ccc(C#N)c21`
2.2

----------
test: Inhibition of HCV BK NS5B polymerase; design: species or system Hepatitis C virus (isolate BK)
pIC50: −log10 of the molar value.
Threshold rule: pIC50 greater than or equal to 6 is Met; below that, Not met.

Exam item: decide whether the reported pIC50 for CCC(C)C1(CC(=O)O)OCCc2c1[nH]c1c(Cl)ccc(Cl)c21 (stereo not given) is at least 6.
Met

Is pIC50 for COCCC1(CC(=O)O)OCCc2c1[nH]c1c(Cl)ccc(Cl)c21 (stereo not given) at or above 6?
Not met

Hi team, for CCC1(CC(=O)O)OCCc2c1[nH]c1c(Cl)ccc(Cl)c21 (stereo not given) , is the recorded pIC50 at or above 6?
Not met

In plain terms: is recorded pIC50 at least 6 for `CCC[C@]1(CC(=O)O)OCCc2c1[nH]c1c(C)c(OCCn3cccn3)cc(C#N)c21` ?
Met

// inclusive: pIC50 at least 6? input: CC1(CC(=O)O)OCCc2c1[nH]c1c(Cl)ccc(Cl)c21 (stereo not given)
Not met

Threshold query (pIC50 >= 6) on O=C(O)CC1(C2CCC2)OCCc2c1[nH]c1c(Cl)ccc(Cl)c21 (stereo not given)
Met

# check: pIC50 of `CC[C@H](C)[C@]1(CC(=O)O)OCCc2c1[nH]c1c(C)c(OCCn3cccn3)cc(C#N)c21` is greater than or equal to 6
Met

Can CC(C)C1(CC(=O)O)OCCc2c1[nH]c1c(Cl)ccc(Cl)c21 (stereo not given) be said to have pIC50 at or above 6?
Not met

State whether the measured pIC50 reaches 6, counting equality as reaching it, for O=C(O)CC1(CCC(F)(F)F)OCCc2c1[nH]c1c(Cl)ccc(Cl)c21 (stereo not given)
Met

----------
test: Inhibition of HCV BK NS5B polymerase; set-up: species or system Hepatitis C virus (isolate BK)
parameterMeasured: IC50 (µM)
Express it in µM; write the number only.

Query IC50 for O=C(O)CC1(C2CCCC2)OCCc2c1[nH]c1c(Cl)ccc(Cl)c21 (stereo not given)
3.3

Read off the recorded IC50 for `Cc1ccc(C#N)c2c3c([nH]c12)[C@](CC(=O)O)(C1CCC1)OCC3`
0.4

Dear colleague, please send me the reported IC50 for `CCC[C@]1(C(=O)O)OCCc2c1[nH]c1c(C)ccc(C#N)c21` when you can.
0.7

# return recorded IC50 for input `CCC[C@]1(CC(=O)O)OCCc2c1[nH]c1c(C)ccc(C#N)c21`
0.3

# return recorded IC50 for entry CSCC1(CC(=O)O)OCCc2c1[nH]c1c(Cl)ccc(Cl)c21 (stereo not given)
7

Could you please provide reported IC50 for O=C(O)CC1(CC2CCCC2)OCCc2c1[nH]c1c(Cl)ccc(Cl)c21 (stereo not given) ? Thanks!
9.4

Given `CC[C@H](C)[C@]1(CC(=O)O)OCCc2c1[nH]c1c(C)ccc(C#N)c21` , respond with its IC50.
0.13

State its IC50: O=C(O)CC1(C2CC2)OCCc2c1[nH]c1c(Cl)ccc(Cl)c21 (stereo not given)
7.3
